These data points were gathered from patent US20260209226A1.

Property: inhibition at 10 µM; scope: individual compounds
Target: Human Serotonin Transporter (SERT) (Homo sapiens, UniProt P31645)
Construct: expressed in transfected cells; host or cells: HEK cells
Sequence (P31645 whole entry): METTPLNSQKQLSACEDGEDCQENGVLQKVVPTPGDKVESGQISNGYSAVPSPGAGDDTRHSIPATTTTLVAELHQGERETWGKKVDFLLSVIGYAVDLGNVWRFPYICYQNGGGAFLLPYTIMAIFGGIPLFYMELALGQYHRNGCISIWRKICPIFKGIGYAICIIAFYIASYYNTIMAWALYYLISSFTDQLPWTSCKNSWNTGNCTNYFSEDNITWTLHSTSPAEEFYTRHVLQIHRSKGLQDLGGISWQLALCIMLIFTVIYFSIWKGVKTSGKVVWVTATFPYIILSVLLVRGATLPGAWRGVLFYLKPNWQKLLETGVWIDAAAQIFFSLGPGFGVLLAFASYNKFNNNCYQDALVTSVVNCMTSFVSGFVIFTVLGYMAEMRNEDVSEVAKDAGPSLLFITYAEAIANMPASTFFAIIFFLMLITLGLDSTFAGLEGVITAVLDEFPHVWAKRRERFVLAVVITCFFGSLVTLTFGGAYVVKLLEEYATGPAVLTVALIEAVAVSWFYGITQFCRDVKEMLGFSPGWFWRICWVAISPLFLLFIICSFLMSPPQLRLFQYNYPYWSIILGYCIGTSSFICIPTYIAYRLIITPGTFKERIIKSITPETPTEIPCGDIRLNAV
Experiment: Human Serotonin Transporter (SERT) Uptake Inhibition Assay ([3H]-Serotonin uptake in HEK cells)
Format: cell-based
Conditions: HEK293, 10 uM test compound; HEK cells expressing recombinant SERT; individual experiments separated by commas
Numbers only here, please. The scale is %.

compound: CC(N)Cc1ccc2scnc2c1 (stereo not shown) [Compound 8]
u: %
inhibition at 10 µM: 68.7
//
compound: CC(N)Cc1ccc2ncoc2c1 (stereo not shown) [Compound 9, 1-(benzo[d]oxazol-6-yl)propan-2-amine]
u: %
inhibition at 10 µM: -2.39
//
compound: CNC(C)Cc1ccc2scnc2c1 (stereo not shown) [Compound 4]
u: %
inhibition at 10 µM: 61.8
//
compound: CNC(C)Cc1ccc2ncsc2c1 (stereo not shown) [Compound 2]
u: %
inhibition at 10 µM: 67.9
//
compound: CNC(C)Cc1ccc2conc2c1 (stereo not shown) [Compound 10]
u: %
inhibition at 10 µM: 48.3

Lab entry: Human Serotonin Transporter (SERT) (Homo sapiens, UniProt P31645) assay, compound CN[C@@H](C)Cc1ccc2ncsc2c1 [Compound 16] , inhibition at 10 µM = 57.7

Lab entry: Human Serotonin Transporter (SERT) (Homo sapiens, UniProt P31645) assay, compound CC(N)Cc1ccc2ncnn2c1 (stereo not shown) [Compound 13] , inhibition at 10 µM = 1.34

Lab entry: Human Serotonin Transporter (SERT) (Homo sapiens, UniProt P31645) assay, compound CNC(C)Cc1ccc2c(c1)OCO2 (stereo not shown) [18 MDMA, 3,4-methylenedioxymethamphetamine, reference compound] , inhibition at 10 µM = 53.3

Lab entry: Human Serotonin Transporter (SERT) (Homo sapiens, UniProt P31645) assay, compound CN[C@H](C)Cc1ccc2ncsc2c1 [Compound 17] , inhibition at 10 µM = 32.5

Lab entry: Human Serotonin Transporter (SERT) (Homo sapiens, UniProt P31645) assay, compound C[C@H](N)Cc1ccc2ncsc2c1 [Compound 14] , inhibition at 10 µM = 46.6

---

Target: Human Serotonin Transporter (SERT) (Homo sapiens)
Construct: expressed in transfected cells; host or cells: HEK cells
Experiment: Human Serotonin Transporter (SERT) Uptake Inhibition Assay ([3H]-Serotonin uptake in HEK cells)
Assay type: cell-based
Settings: HEK293, 100 uM test compound; HEK cells expressing recombinant SERT; individual experiments separated by commas
Threshold check on inhibition at 100 µM: at or above 90% gives Met, strictly below gives Not met.

compound: CN[C@H](C)Cc1ccc2ncsc2c1 [Compound 17]
label: Met

Task: Textbook exercise: given the entry CNC(C)Cc1ccc2ncnn2c1 (centres unmarked) [Compound 12] , state whether its inhibition at 100 µM is greater than or equal to 90%.
Output: Not met

Task: Textbook exercise: given the entry CC(N)Cc1ccc2conc2c1 (centres unmarked) [Compound 11, 1-(2,1-benzoxazol-6-yl) propan-2-amine] , state whether its inhibition at 100 µM is greater than or equal to 90%.
Output: Met

Task: Textbook exercise: given the entry CN[C@@H](C)Cc1ccc2ncsc2c1 [Compound 16] , state whether its inhibition at 100 µM is greater than or equal to 90%.
Output: Met

Task: Textbook exercise: given the entry CC(N)Cc1ccc2ncsc2c1 (centres unmarked) [Compound 6] , state whether its inhibition at 100 µM is greater than or equal to 90%.
Output: Met

Task: Textbook exercise: given the entry CNC(C)Cc1ccc2conc2c1 (centres unmarked) [Compound 10] , state whether its inhibition at 100 µM is greater than or equal to 90%.
Output: Met

Task: Textbook exercise: given the entry CNC(C)Cc1ccn2ncnc2c1 (centres unmarked) [Compound 3] , state whether its inhibition at 100 µM is greater than or equal to 90%.
Output: Not met

Task: Textbook exercise: given the entry C[C@@H](N)Cc1ccc2ncsc2c1 [Compound 15] , state whether its inhibition at 100 µM is greater than or equal to 90%.
Output: Met

---

Target: Human Serotonin Transporter (SERT) (Homo sapiens)
Construct: expressed in transfected cells; host or cells: HEK cells
Experiment: Human Serotonin Transporter (SERT) Uptake Inhibition Assay ([3H]-Serotonin uptake in HEK cells)
Format: cell-based
Conditions: 10 half-log dilutions from 100 μM; HEK cells expressing recombinant SERT; individual experiments separated by commas; read-out: SERT Uptake Inhibition IC50
recorded-endpoint: IC50 (µM)
Numbers only here, please. The scale is µM.

Solved entries (count: 5):
compound: CNC(C)Cc1ccc2scnc2c1 (stereo not drawn) [Compound 4]
measured-target: Human Serotonin Transporter (SERT) (Homo sapiens)
recorded-endpoint: IC50
u: µM
endpoint-value: 11.3
--
compound: CNC(C)Cc1ccc2ncsc2c1 (stereo not drawn) [Compound 2]
measured-target: Human Serotonin Transporter (SERT) (Homo sapiens)
recorded-endpoint: IC50
u: µM
endpoint-value: 10.3
--
compound: C[C@H](N)Cc1ccc2ncsc2c1 [Compound 14]
measured-target: Human Serotonin Transporter (SERT) (Homo sapiens)
recorded-endpoint: IC50
u: µM
endpoint-value: 6.6
--
compound: CC(N)Cc1ccc2ncsc2c1 (stereo not drawn) [Compound 6]
measured-target: Human Serotonin Transporter (SERT) (Homo sapiens)
recorded-endpoint: IC50
u: µM
endpoint-value: 7.5
--
compound: CC(N)Cc1ccc2scnc2c1 (stereo not drawn) [Compound 8]
measured-target: Human Serotonin Transporter (SERT) (Homo sapiens)
recorded-endpoint: IC50
u: µM
endpoint-value: 11.5

# context switch: different compound, same IC50
According to the records, this compound CN[C@@H](C)Cc1ccc2ncsc2c1 [Compound 16] displays IC50 of 5.1

---

Biological target: Human Serotonin Transporter (SERT) (Homo sapiens)
Construct: expressed in transfected cells; host or cells: HEK cells
Experiment: Human Serotonin Transporter (SERT) Uptake Inhibition Assay ([3H]-Serotonin uptake in HEK cells)
Assay type: cell-based
Conditions: HEK293, 100 uM test compound; HEK cells expressing recombinant SERT; individual experiments separated by commas
Experimental: Compound activity is assessed using an in vitro assay. Briefly, HEK cells expressing recombinant serotonin transporter (SERT) are plated at 50,000 cells/well on a 96 well plate pre-coated with Matrigel one day prior to the experiment. […] Radioactivity is counted with Microbeta Counter and reported as counts per minute (CPM). […] IC50s were determined using the log(inhibitor) vs. normalized response—Variable slope model in GraphPad Prism 10.1.0 and are summarized in Table 3.
Threshold check on inhibition at 100 µM: at or above 90% gives 1 (yes), strictly below gives 0 (no).

Some solved cases for reference:
compound: CC(N)Cc1ccc2ncnn2c1 (stereo not drawn)
measured-target: Human Serotonin Transporter (SERT) (Homo sapiens)
label: 0 (no)
//
compound: C[C@H](N)Cc1ccc2ncsc2c1
measured-target: Human Serotonin Transporter (SERT) (Homo sapiens)
label: 1 (yes)
//
compound: CC(N)Cc1ccc2scnc2c1 (stereo not drawn)
measured-target: Human Serotonin Transporter (SERT) (Homo sapiens)
label: 0 (no)

Task: Textbook exercise: given the entry CNC(C)Cc1ccc2c(c1)OCO2 (stereo not drawn) [18 MDMA, 3,4-methylenedioxymethamphetamine, reference compound] , state whether its inhibition at 100 µM is greater than or equal to 90%.
Output: 0 (no)

---

Target: Human Serotonin Transporter (SERT) (Homo sapiens, UniProt P31645)
Construct: expressed in transfected cells; host or cells: HEK cells
Assay: Human Serotonin Transporter (SERT) Uptake Inhibition Assay ([3H]-Serotonin uptake in HEK cells)
Format: cell-based
Settings: 100 uM test compound; HEK cells expressing recombinant SERT; individual experiments separated by commas; 100 µM
recorded-endpoint: SERT UPTAKE INHIBITION (%) @100 uM
Answers without a unit are incomplete; give the number and then its unit.

compound: CNC(C)Cc1ccn2ncnc2c1 (stereo not shown) [Compound 3]
SERT UPTAKE INHIBITION (%) @100 uM: 69.13%

compound: CC(N)Cc1ccc2ncsc2c1 (stereo not shown) [Compound 6]
SERT UPTAKE INHIBITION (%) @100 uM: 96.89%

compound: CC(N)Cc1ccc2scnc2c1 (stereo not shown) [Compound 8]
SERT UPTAKE INHIBITION (%) @100 uM: 90.93%

# context switch: different compound, same SERT UPTAKE INHIBITION (%) @100 uM
According to the records, this compound CNC(C)Cc1ccc2scnc2c1 (stereo not shown) [Compound 4] displays SERT UPTAKE INHIBITION (%) @100 uM of 87.43%

---

Property: IC50; scope: individual molecules
Target: Human Norepinephrine Transporter (NET) (Homo sapiens)
Construct: expressed in transfected cells; host or cells: HEK cells
Sequence (P23975 whole entry): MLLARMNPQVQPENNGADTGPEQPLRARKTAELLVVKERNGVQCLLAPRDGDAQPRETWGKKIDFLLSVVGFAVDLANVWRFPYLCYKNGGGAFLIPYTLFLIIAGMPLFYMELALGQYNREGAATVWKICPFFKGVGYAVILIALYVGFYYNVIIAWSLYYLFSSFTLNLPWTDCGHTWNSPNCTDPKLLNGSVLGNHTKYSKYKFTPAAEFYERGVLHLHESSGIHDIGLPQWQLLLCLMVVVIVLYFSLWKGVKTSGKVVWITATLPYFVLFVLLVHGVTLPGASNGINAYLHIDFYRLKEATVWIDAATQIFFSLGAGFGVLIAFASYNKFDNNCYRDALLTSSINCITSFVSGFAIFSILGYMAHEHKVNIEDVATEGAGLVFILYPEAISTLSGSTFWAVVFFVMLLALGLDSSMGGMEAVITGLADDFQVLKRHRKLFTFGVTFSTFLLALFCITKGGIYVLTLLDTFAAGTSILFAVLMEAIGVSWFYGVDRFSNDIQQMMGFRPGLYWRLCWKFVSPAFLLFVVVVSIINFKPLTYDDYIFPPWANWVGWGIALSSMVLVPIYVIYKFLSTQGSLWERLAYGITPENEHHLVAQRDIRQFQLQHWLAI
Experiment: Human Norepinephrine Transporter (NET) Uptake Inhibition Assay ([3H]-Norepinephrine uptake in HEK cells)
Format: cell-based
Settings: 10 half-log dilutions from 100 μM; HEK cells expressing recombinant NET; individual experiments separated by commas; read-out: NET Uptake Inhibition IC50
Numbers only here, please. The scale is µM.

Solved entries (count: 4):
molecule: CC(N)Cc1ccc2ncsc2c1 (stereo not drawn)
u: µM
IC50: 1.1

molecule: CNC(C)Cc1ccc2ncsc2c1 (stereo not drawn)
u: µM
IC50: 4.7

molecule: CNC(C)Cc1ccc2scnc2c1 (stereo not drawn)
u: µM
IC50: 8.3

molecule: CN[C@@H](C)Cc1ccc2ncsc2c1
u: µM
IC50: 4.2

# context switch: different molecule, same IC50
According to the records, this molecule C[C@H](N)Cc1ccc2ncsc2c1 displays IC50 of 5.8
